Experiment: Permeability by PAMPA
Type: ADME
Settings: read-out: permeability
quantity-measured: Papp (×10⁻⁶ cm/s)

[[record]]
input_smiles = "CCn1cc(-c2ccnc3[nH]ccc23)c(-c2ccc(NC(=O)Nc3ccccc3)cc2)n1"
unit_descriptor = "×10⁻⁶ cm/s"
numeric_readout = 17


* * *

Protein target, amino acids: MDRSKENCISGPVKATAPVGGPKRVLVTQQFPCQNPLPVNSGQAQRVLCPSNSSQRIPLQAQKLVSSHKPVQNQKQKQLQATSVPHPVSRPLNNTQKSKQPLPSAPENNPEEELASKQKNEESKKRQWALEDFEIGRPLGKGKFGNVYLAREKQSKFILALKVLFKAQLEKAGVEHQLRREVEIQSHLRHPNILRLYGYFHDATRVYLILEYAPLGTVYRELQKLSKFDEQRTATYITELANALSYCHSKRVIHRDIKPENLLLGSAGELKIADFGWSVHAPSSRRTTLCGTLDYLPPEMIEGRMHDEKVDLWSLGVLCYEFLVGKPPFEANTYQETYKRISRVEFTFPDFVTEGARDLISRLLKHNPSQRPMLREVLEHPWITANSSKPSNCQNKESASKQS
pIC50: −log10 of the molar value.
quantity-measured: pIC50

[[record]]
input_smiles = "CCn1cc(-c2ccnc3[nH]c(-c4cccc(NC(C)=O)c4)cc23)c(-c2ccc(NC(=O)Nc3ccccc3)cc2)n1"
quantity_measured = "pIC50"
numeric_readout = 6.90

[[record]]
input_smiles = "CCn1cc(-c2ccnc3[nH]c(-c4cccc(CN(C)C)c4)cc23)c(-c2ccc(NC(=O)Nc3ccccc3)cc2)n1"
quantity_measured = "pIC50"
numeric_readout = 7.28

[[record]]
input_smiles = "CCn1cc(-c2ccnc3[nH]c(CNCCO)cc23)c(-c2ccc(NC(=O)Nc3ccccc3)cc2)n1"
quantity_measured = "pIC50"
numeric_readout = 5.55

[[record]]
input_smiles = "CCn1cc(-c2ccnc3[nH]c(CNCCS(C)(=O)=O)cc23)c(-c2ccc(NC(=O)Nc3ccccc3)cc2)n1"
quantity_measured = "pIC50"
numeric_readout = 6.24


* * *

The reader will find IC50 measurements below, all made with Aurora kinase A (Homo sapiens, UniProt O14965).
quantity-measured: IC50 (nM)

[[record]]
input_smiles = "CCNC(=O)Nc1ccc(-c2nn(CC)cc2-c2ccnc3[nH]c(-c4cccc(CN(C)C)c4)cc23)cc1"
quantity_measured = "IC50"
unit_descriptor = "nM"
value_prefix = "="
numeric_readout = 128

[[record]]
input_smiles = "O=C(Nc1ccccc1)Nc1ccc(-c2n[nH]cc2-c2ccnc3[nH]ccc23)cc1"
quantity_measured = "IC50"
unit_descriptor = "nM"
value_prefix = "="
numeric_readout = 3850

[[record]]
input_smiles = "O=C(Nc1ccccc1)Nc1ccc(-c2nn(CC(F)(F)F)cc2-c2ccnc3[nH]ccc23)cc1"
quantity_measured = "IC50"
unit_descriptor = "nM"
value_prefix = "="
numeric_readout = 2150

[[record]]
input_smiles = "CCNC(=O)Nc1ccc(-c2nn(CC)cc2-c2ccnc3[nH]c(-c4ccc(CN(C)C)cc4)cc23)cc1"
quantity_measured = "IC50"
unit_descriptor = "nM"
value_prefix = "="
numeric_readout = 39

[[record]]
input_smiles = "CCn1cc(-c2ccnc3[nH]ccc23)c(-c2ccc(NC(=O)N(C)C)cc2)n1"
quantity_measured = "IC50"
unit_descriptor = "nM"
value_prefix = ">"
numeric_readout = 10000


* * *

Target: Aurora kinase B (Homo sapiens)
Sequence (Q96GD4 whole entry): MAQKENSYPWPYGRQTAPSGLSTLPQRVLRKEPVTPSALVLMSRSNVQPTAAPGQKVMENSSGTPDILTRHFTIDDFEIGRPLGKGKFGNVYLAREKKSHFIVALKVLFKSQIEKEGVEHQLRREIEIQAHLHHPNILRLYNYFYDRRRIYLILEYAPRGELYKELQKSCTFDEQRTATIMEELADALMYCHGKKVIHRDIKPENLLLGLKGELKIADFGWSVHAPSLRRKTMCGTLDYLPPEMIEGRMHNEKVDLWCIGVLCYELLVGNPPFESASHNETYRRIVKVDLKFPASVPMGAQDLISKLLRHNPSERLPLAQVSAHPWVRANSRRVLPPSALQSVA
quantity-measured: IC50 (nM)

[[record]]
input_smiles = "CCn1cc(-c2ccnc3[nH]c(-c4ccc(CN(C)C)cc4C)cc23)c(-c2ccc(NC(=O)Nc3ccccc3)cc2)n1"
numeric_readout = 26

[[record]]
input_smiles = "CCNC(=O)Nc1ccc(-c2nn(CC)cc2-c2ccnc3[nH]c(-c4ccc(CN(C)C)cc4)cc23)cc1"
numeric_readout = 1.7

[[record]]
input_smiles = "CCNC(=O)Nc1ccc(-c2nn(CC)cc2-c2ccnc3[nH]c(-c4ccc(CN5CCOCC5)cc4)cc23)cc1"
numeric_readout = 4.7

[[record]]
input_smiles = "CCNC(=O)Cn1cc(-c2ccnc3[nH]ccc23)c(-c2ccc(NC(=O)Nc3ccccc3)cc2)n1"
numeric_readout = 64


* * *

Molecular target: Aurora kinase C (Homo sapiens, UniProt Q9UQB9)
Sequence (Q9UQB9 whole entry): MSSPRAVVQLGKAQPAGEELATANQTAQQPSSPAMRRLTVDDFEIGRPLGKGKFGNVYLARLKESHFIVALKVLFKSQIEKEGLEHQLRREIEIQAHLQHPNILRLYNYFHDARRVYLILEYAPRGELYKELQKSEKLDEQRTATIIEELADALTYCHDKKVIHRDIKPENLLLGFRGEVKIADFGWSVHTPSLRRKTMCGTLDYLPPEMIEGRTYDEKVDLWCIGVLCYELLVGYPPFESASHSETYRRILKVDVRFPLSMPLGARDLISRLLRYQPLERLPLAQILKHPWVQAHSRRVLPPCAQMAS
Test: Competitive inhibition of human Aurora C ATP binding site
quantity-measured: Ki (nM)

[[record]]
input_smiles = "CCn1cc(-c2ccnc3[nH]c(-c4cccc(CN(C)C)c4)cc23)c(-c2ccc(NC(=O)N(C)C)cc2)n1"
quantity_measured = "Ki"
numeric_readout = 1.5


* * *

Target: UniProt:P10635
Sequence (P10635 whole entry): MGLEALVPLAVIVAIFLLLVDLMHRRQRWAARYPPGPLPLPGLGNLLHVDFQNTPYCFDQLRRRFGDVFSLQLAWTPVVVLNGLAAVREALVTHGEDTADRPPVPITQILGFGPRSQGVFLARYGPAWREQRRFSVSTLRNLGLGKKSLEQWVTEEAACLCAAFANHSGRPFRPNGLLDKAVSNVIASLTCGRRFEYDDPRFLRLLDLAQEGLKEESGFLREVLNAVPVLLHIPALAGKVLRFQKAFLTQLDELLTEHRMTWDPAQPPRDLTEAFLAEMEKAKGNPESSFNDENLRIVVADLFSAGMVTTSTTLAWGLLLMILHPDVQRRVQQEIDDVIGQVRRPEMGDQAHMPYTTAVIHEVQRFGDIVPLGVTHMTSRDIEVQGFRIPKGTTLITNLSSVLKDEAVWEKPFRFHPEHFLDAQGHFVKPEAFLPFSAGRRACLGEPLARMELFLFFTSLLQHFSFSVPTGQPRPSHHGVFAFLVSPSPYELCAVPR
Assay: Inhibition of CYP2D6
Type: ADME
quantity-measured: IC50

[[record]]
input_smiles = "CCn1cc(-c2ccnc3[nH]ccc23)c(-c2ccc(NC(=O)Nc3ccccc3)cc2)n1"
quantity_measured = "IC50"
result = "< 100 nM"


* * *

Molecular target: UniProtKB P11712
Sequence (P11712 whole entry): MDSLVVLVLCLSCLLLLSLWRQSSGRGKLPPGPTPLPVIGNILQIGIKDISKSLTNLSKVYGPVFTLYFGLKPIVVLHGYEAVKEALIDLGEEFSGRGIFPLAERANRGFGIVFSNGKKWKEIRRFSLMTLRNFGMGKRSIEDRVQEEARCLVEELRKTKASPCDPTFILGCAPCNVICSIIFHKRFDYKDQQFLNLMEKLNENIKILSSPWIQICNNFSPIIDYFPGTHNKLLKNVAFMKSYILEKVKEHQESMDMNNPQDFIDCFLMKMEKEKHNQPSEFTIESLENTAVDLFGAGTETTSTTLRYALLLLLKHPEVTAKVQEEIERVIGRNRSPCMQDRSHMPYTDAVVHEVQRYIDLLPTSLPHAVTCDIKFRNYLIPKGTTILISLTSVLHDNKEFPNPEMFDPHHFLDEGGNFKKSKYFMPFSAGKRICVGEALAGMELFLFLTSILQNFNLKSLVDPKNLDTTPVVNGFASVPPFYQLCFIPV
Assay: Inhibition of CYP2C9
Format: ADME
quantity-measured: IC50

[[record]]
input_smiles = "CCn1cc(-c2ccnc3[nH]ccc23)c(-c2ccc(NC(=O)Nc3ccccc3)cc2)n1"
study_target = "UniProtKB P11712"
result = "< 100 nM"


* * *

Molecular target: Aurora kinase A (Homo sapiens)
Quick rule for you: IC50 under 70 nM gets met, anything else gets not met.

[[record]]
compound = "CCn1cc(-c2ccnc3[nH]c(-c4ccc(CN(C)C)cc4C)cc23)c(-c2ccc(NC(=O)Nc3ccccc3)cc2)n1"
label_class = "met"

[[record]]
compound = "CCn1cc(-c2ccnc3[nH]c(C(=O)NCCCN4CCN(C)CC4)cc23)c(-c2ccc(NC(=O)Nc3ccccc3)cc2)n1"
label_class = "not met"

[[record]]
compound = "O=C(Nc1ccccc1)Nc1ccc(-c2nn(CC(O)CO)cc2-c2ccnc3[nH]ccc23)cc1 (stereo not drawn)"
label_class = "not met"

[[record]]
compound = "CCn1cc(-c2ccnc3[nH]c(-c4cc(CN(C)C)ccc4C)cc23)c(-c2ccc(NC(=O)Nc3ccccc3)cc2)n1"
label_class = "not met"

[[record]]
compound = "CCn1cc(-c2ccnc3[nH]c(-c4ccc(CN(C)C)cc4)cc23)c(-c2ccc(NC(=O)Nc3ccccc3)cc2)n1"
label_class = "met"

[[record]]
compound = "CCn1ncc(-c2ccnc3[nH]ccc23)c1-c1ccc(NC(=O)Nc2ccccc2)cc1"
label_class = "not met"

[[record]]
compound = "CCNC(=O)Nc1ccc(-c2nn(CC)cc2-c2ccnc3[nH]c(-c4ccc(CN5CCOCC5)cc4)cc23)cc1"
label_class = "met"


* * *

Target: Aurora kinase B (Homo sapiens)
Quick rule for you: IC50 under 5 nM gets criterion met, anything else gets criterion not met.

[[record]]
compound = "O=C(Nc1ccccc1)Nc1ccc(-c2nn(CC(O)CO)cc2-c2ccnc3[nH]ccc23)cc1 (configuration not stated)"
label_class = "criterion met"

[[record]]
compound = "O=C(Nc1ccccc1)Nc1ccc(-c2nn(CC(F)(F)F)cc2-c2ccnc3[nH]ccc23)cc1"
label_class = "criterion not met"

[[record]]
compound = "CCn1cc(-c2ccnc3[nH]c(CNCCO)cc23)c(-c2ccc(NC(=O)Nc3ccccc3)cc2)n1"
label_class = "criterion not met"

[[record]]
compound = "CCn1cc(-c2ccnc3[nH]c(-c4cccc(CN5CCOCC5)c4)cc23)c(-c2ccc(NC(=O)Nc3ccccc3)cc2)n1"
label_class = "criterion not met"

[[record]]
compound = "CCn1cc(-c2ccnc3[nH]c(-c4cc(CN(C)C)ccc4C)cc23)c(-c2ccc(NC(=O)Nc3ccccc3)cc2)n1"
label_class = "criterion not met"

[[record]]
compound = "CCn1cc(-c2ccnc3[nH]c(-c4cccc(CN5CCCC5)c4)cc23)c(-c2ccc(NC(=O)N(C)C)cc2)n1"
label_class = "criterion met"

[[record]]
compound = "CCn1cc(-c2ccnc3[nH]c(-c4ccc(CN5CCCC5)cc4)cc23)c(-c2ccc(NC(=O)N(C)C)cc2)n1"
label_class = "criterion met"

[[record]]
compound = "O=C(Nc1ccccc1)Nc1ccc(-c2nn(CCCO)cc2-c2ccnc3[nH]ccc23)cc1"
label_class = "criterion met"

[[record]]
compound = "CCn1cc(-c2ccnc3[nH]c(-c4cccc(CN5CCCC5)c4)cc23)c(-c2ccc(NC(=O)Nc3ccccc3)cc2)n1"
label_class = "criterion not met"

[[record]]
compound = "CCNC(=O)Nc1ccc(-c2nn(CC)cc2-c2ccnc3[nH]c(-c4cccc(CN(C)C)c4)cc23)cc1"
label_class = "criterion met"

[[record]]
compound = "NC(=O)Cn1cc(-c2ccnc3[nH]ccc23)c(-c2ccc(NC(=O)Nc3ccccc3)cc2)n1"
label_class = "criterion not met"

[[record]]
compound = "CCNC(=O)Nc1ccc(-c2nn(CC)cc2-c2ccnc3[nH]c(-c4ccc(CN5CCCC5)cc4)cc23)cc1"
label_class = "criterion met"

[[record]]
compound = "CCn1cc(-c2ccnc3[nH]c(-c4cccc(NC(C)=O)c4)cc23)c(-c2ccc(NC(=O)Nc3ccccc3)cc2)n1"
label_class = "criterion not met"


* * *

Quick reference: IC50 of the listed items.
Molecular target: UniProtKB Q9UQB9
Test: Competitive inhibition of Aurora C ATP binding site
quantity-measured: IC50 (nM)

[[record]]
molecule = "CCn1cc(-c2ccnc3[nH]c(-c4cccc(CN(C)C)c4)cc23)c(-c2ccc(NC(=O)N(C)C)cc2)n1 [GSK-1070916]"
study_target = "UniProtKB Q9UQB9"
quantity_measured = "IC50"
unit_descriptor = "nM"
numeric_readout = 6.5

[[record]]
molecule = "CCN(CCCOc1ccc2c(Nc3cc(CC(=O)Nc4cccc(F)c4)n[nH]3)ncnc2c1)CCOP(=O)(O)O [BARASERTIB]"
study_target = "UniProtKB Q9UQB9"
quantity_measured = "IC50"
unit_descriptor = "nM"
numeric_readout = 17

